Origin of values: patent US12569495B2

Test: MTT cytotoxicity assay in PAMs
Type: cell-based, pig
Details: pig, porcine alveolar macrophages (PAMs), 24 h incubation, read-out: LC50, MTT assay
Description: The cytotoxicity of selected screening compounds was determined in porcine alveolar macrophages (PAMs) the principal host cell of productive PRRSV infection. Briefly, various concentrations of the compounds were added to PAMs seeded in 24-well plates and incubated for 24 h. […] The absorbance of samples was measured using a spectrophotometry microplate reader at 600 nm. […]
property: CC50 at 24 h (µM)
Give the number; µM is assumed, so skip it.

Given item Cc1cc(F)ccc1S(=O)(=O)Nc1nc2ccccc2nc1Nc1cccc(S(=O)(=O)N2CCOCC2)c1 , the value recorded as its CC50 at 24 h is 81.7
